Molecular target: AgLsb1
Experiment: SPOT peptide array binding signal intensity (averaged, normalized) (arbitrary units (background-subtracted, floor 0; scale differs between SH3 domains)); higher = stronger binding of the SH3 domain to the peptide
metric-name: SPOT peptide array binding signal intensity
Returns: the value as a bare number; no unit string appended.

# annotated cases, reported SPOT peptide array binding signal intensity shown
The binder `VTHRLRISIPGITGR` showed SPOT peptide array binding signal intensity equal to 4.5

get_value(item= `MKRSRPSRSIPYTTP` , readout=SPOT peptide array binding signal intensity) returns 3.5

The reported value for `KRNRLKILLPFLEQS` in terms of SPOT peptide array binding signal intensity is 3.5

Next:
The recorded SPOT peptide array binding signal intensity for entry `SNRRPVPRRPSQPLN` equals 23.5

The values you see were collected from the supplement of paper PMC4466140.
